molecular target: DGAT2; settings: ASO, HepG2, 2.5 µM
After the bases stand the sugars from the 5' end (letter, count) and the backbone: PS all phosphorothioate, else s phosphorothioate and o phosphodiester by linkage. Methylation of C is not given here. e = 2'-O-(2-methoxyethyl) (MOE); d = 2'-deoxy (DNA)

- POLYMER SEQUENCE: "GGTTGTGTGTCTTCACCAGC (sugars e5 d10 e5, PS)"
  target mRNA inhibition, %: 0
- POLYMER SEQUENCE: "TGACCTTGGGATAGTCCCTC (sugars e5 d10 e5, PS)"
  target mRNA inhibition, %: 93
- POLYMER SEQUENCE: "AGGAAAACTTAGGCATGCTT (sugars e5 d10 e5, PS)"
  target mRNA inhibition, %: 58
- POLYMER SEQUENCE: "CAGATCTTCATTACATGATT (sugars e5 d10 e5, PS)"
  target mRNA inhibition, %: 71
- POLYMER SEQUENCE: "ACCACAGCGATAATCAC (sugars e3 d10 e4, PS)"
  target mRNA inhibition, %: 50
- POLYMER SEQUENCE: "CAGCAGATGATGTCCTGCCT (sugars e5 d10 e5, PS)"
  target mRNA inhibition, %: 66
- POLYMER SEQUENCE: "GCTTGTACACTTCATTCTCT (sugars e5 d10 e5, PS)"
  target mRNA inhibition, %: 42
- POLYMER SEQUENCE: "ATTTCTTATCTTCAATCCTC (sugars e5 d10 e5, PS)"
  target mRNA inhibition, %: 57
- POLYMER SEQUENCE: "CCAACTCTCAGCTACTCCCC (sugars e5 d10 e5, PS)"
  target mRNA inhibition, %: 95
- POLYMER SEQUENCE: "GCTTCCTCCCACTTCAGTTT (sugars e5 d10 e5, PS)"
  target mRNA inhibition, %: 55
- POLYMER SEQUENCE: "CTGCATAGCTGAGCAAATCC (sugars e5 d10 e5, PS)"
  target mRNA inhibition, %: 52
- POLYMER SEQUENCE: "CCTCCTTAGCTTTAATCCAG (sugars e5 d10 e5, PS)"
  target mRNA inhibition, %: 43
- POLYMER SEQUENCE: "AAGGAAAACTTAGGCATGCT (sugars e5 d10 e5, PS)"
  target mRNA inhibition, %: 63
- POLYMER SEQUENCE: "GAAATCCAATGCACCTTGTA (sugars e5 d10 e5, PS)"
  target mRNA inhibition, %: 63
- POLYMER SEQUENCE: "TTGTCCTGGTCCCAGTACTT (sugars e5 d10 e5, PS)"
  target mRNA inhibition, %: 68
- POLYMER SEQUENCE: "AATCCAACCCTTGTCACTCT (sugars e5 d10 e5, PS)"
  target mRNA inhibition, %: 33
- POLYMER SEQUENCE: "AGCAGGTTGTGTGTCTTCAC (sugars e5 d10 e5, PS)"
  target mRNA inhibition, %: 0
- POLYMER SEQUENCE: "CAATGCCAATGCCTAGGTCA (sugars e5 d10 e5, PS)"
  target mRNA inhibition, %: 70
- POLYMER SEQUENCE: "AATGGAGTGACAGGGCAGGA (sugars e5 d10 e5, PS)"
  target mRNA inhibition, %: 54
- POLYMER SEQUENCE: "GATCACCTGCTTGTACACTT (sugars e5 d10 e5, PS)"
  target mRNA inhibition, %: 36
- POLYMER SEQUENCE: "GCTCAGAGACTCAGCCGCAC (sugars e5 d10 e5, PS)"
  target mRNA inhibition, %: 41
- POLYMER SEQUENCE: "CCCAGTACTTTCTTCTCATG (sugars e5 d10 e5, PS)"
  target mRNA inhibition, %: 72
- POLYMER SEQUENCE: "CATACTGGCATCTGGCAGGG (sugars e5 d10 e5, PS)"
  target mRNA inhibition, %: 65
